- Test system: RIVA
- test_description: growth inhibition by drug plus 177Lu-lilotomab satetraxetan (1 - RLU/untreated control) (fraction); higher = stronger inhibition
- condition_context: 100 nM; time (day): 3; 177Lu-lilotomab satetraxetan 0.5 ug/ml
recorded_metric: growth inhibition by drug plus 177Lu-lilotomab satetraxetan
Could you respond with only the numeric value?

Asked: Give recorded growth inhibition by drug plus 177Lu-lilotomab satetraxetan. CC(C)C[C@H](NC(=O)[C@@H](O)[C@H](N)Cc1ccccc1)C(=O)O [Ubenimex (Bestatin)]
Given back: 0.504

Asked: Give recorded growth inhibition by drug plus 177Lu-lilotomab satetraxetan. Cc1cnc(-c2cnc(NCCNc3ccc(C#N)cn3)nc2-c2ccc(Cl)cc2Cl)[nH]1
Given back: 0.455

Asked: Give recorded growth inhibition by drug plus 177Lu-lilotomab satetraxetan. CCC(=O)N1CCN(c2ccc(-n3c(=O)ccc4cnc5ccc(-c6cnc7ccccc7c6)cc5c43)cc2C(F)(F)F)CC1 [Torin 1]
Given back: 0.595

Asked: Give recorded growth inhibition by drug plus 177Lu-lilotomab satetraxetan. CNC(=O)c1cc(Oc2ccc(NC(=O)Nc3ccc(Cl)c(C(F)(F)F)c3)c(F)c2)ccn1 [Regorafenib (BAY 73-4506)]
Given back: 0.463

Asked: Give recorded growth inhibition by drug plus 177Lu-lilotomab satetraxetan. CC(C)CC(=O)Nc1n[nH]c2c1CN(C(=O)C1CCN(C)CC1)C2(C)C
Given back: 0.35

Asked: Give recorded growth inhibition by drug plus 177Lu-lilotomab satetraxetan. COc1ccc(/C=C\c2cc(OC)c(OC)c(OC)c2)cc1O [Combretastatin A4]
Given back: 0.936

Asked: Give recorded growth inhibition by drug plus 177Lu-lilotomab satetraxetan. O=C(/C=C/c1cccnc1)NCCCCC1CCN(C(=O)c2ccccc2)CC1
Given back: 0.99

Asked: Give recorded growth inhibition by drug plus 177Lu-lilotomab satetraxetan. c1ccc2c(CCNc3ccc(Nc4ccncc4)cc3)c[nH]c2c1
Given back: 0.12

Asked: Give recorded growth inhibition by drug plus 177Lu-lilotomab satetraxetan. Cc1cccc(-c2nn3c(c2-c2ccnc4ccc(C(N)=O)cc24)CCC3)n1
Given back: 0.372

###

Assignment: determine reported growth inhibition by drug plus 177Lu-lilotomab satetraxetan for the given compounds.
- Tested on: U-2932
- test_description: growth inhibition by drug plus 177Lu-lilotomab satetraxetan (1 - RLU/untreated control) (fraction); higher = stronger inhibition
- condition_context: 1000 nM; time (day): 4; 177Lu-lilotomab satetraxetan 1 ug/ml
Where a name gives a salt, the structure may show the parent alone.
Could you respond with only the numeric value?

Asked: Report growth inhibition by drug plus 177Lu-lilotomab satetraxetan under test system U-2932 for CS(=O)(=O)CCNCc1ccc(-c2ccc3ncnc(Nc4ccc(OCc5cccc(F)c5)c(Cl)c4)c3c2)o1 [Lapatinib Ditosylate (Tykerb)] .
Given back: 0.127

Asked: Report growth inhibition by drug plus 177Lu-lilotomab satetraxetan under test system U-2932 for Nc1ncn([C@@H]2O[C@H](CO)[C@@H](O)[C@H]2O)c(=O)n1 [Azacitidine (Vidaza)] .
Given back: 0.0405

Asked: Report growth inhibition by drug plus 177Lu-lilotomab satetraxetan under test system U-2932 for COc1cc2c(N3CCN(C(=O)Nc4ccc(OC(C)C)cc4)CC3)ncnc2cc1OCCCN1CCCCC1 [Tandutinib (MLN518)] .
Given back: -0.112

Asked: Report growth inhibition by drug plus 177Lu-lilotomab satetraxetan under test system U-2932 for CCCC(CCC)C(=O)O [Valproic acid sodium salt (Sodium valproate)] .
Given back: 0.0571

Asked: Report growth inhibition by drug plus 177Lu-lilotomab satetraxetan under test system U-2932 for CCC[C@H](NC(=O)/C(C#N)=C/c1cccc(Br)n1)c1ccccc1 .
Given back: 0.0599

Asked: Report growth inhibition by drug plus 177Lu-lilotomab satetraxetan under test system U-2932 for CC(C)n1c(/C=C/C(O)CC(O)CC(=O)O)c(-c2ccc(F)cc2)c2ccccc21 (stereo not drawn) [Fluvastatin sodium (Lescol)] .
Given back: 0.0135

Asked: Report growth inhibition by drug plus 177Lu-lilotomab satetraxetan under test system U-2932 for COc1cc2ncnc(Nc3ccc(Oc4ccccc4)cc3)c2cc1OC .
Given back: 0.0137

Asked: Report growth inhibition by drug plus 177Lu-lilotomab satetraxetan under test system U-2932 for CC(=O)Nc1cccc(-n2c(=O)n(C3CC3)c(=O)c3c(Nc4ccc(I)cc4F)n(C)c(=O)c(C)c32)c1 .
Given back: 0.326

###

- Tested on: U-2932
- test_description: growth inhibition by drug plus 177Lu-lilotomab satetraxetan (1 - RLU/untreated control) (fraction); higher = stronger inhibition
- condition_context: 1000 nM; time (day): 3; 177Lu-lilotomab satetraxetan 1 ug/ml
recorded_metric: growth inhibition by drug plus 177Lu-lilotomab satetraxetan

Asked: Give recorded growth inhibition by drug plus 177Lu-lilotomab satetraxetan. Cc1cnc(-c2cnc(NCCNc3ccc(C#N)cn3)nc2-c2ccc(Cl)cc2Cl)[nH]1
Given back: 0.0116

Asked: Give recorded growth inhibition by drug plus 177Lu-lilotomab satetraxetan. CN1CCC(CNc2ccc3ncc(-c4cccc(OC(F)(F)F)c4)n3n2)CC1 [SGI-1776 free base]
Given back: 0.154

Asked: Give recorded growth inhibition by drug plus 177Lu-lilotomab satetraxetan. N#CC1(c2ccc(NC(=O)c3cccnc3NCc3ccncc3)cc2)CCCC1
Given back: -0.0473

Asked: Give recorded growth inhibition by drug plus 177Lu-lilotomab satetraxetan. Cc1cccc(-c2nn3c(c2-c2ccnc4ccc(C(N)=O)cc24)CCC3)n1
Given back: 0.0167

Asked: Give recorded growth inhibition by drug plus 177Lu-lilotomab satetraxetan. COc1ccc(CCN2CCN(CCCc3ccccc3)CC2)cc1OC
Given back: 0.0208

###

- System: U-2932
- test_description: growth inhibition by drug alone (1 - RLU/untreated control) (fraction); higher = stronger inhibition
- condition_context: 1000 nM; time (day): 3; 177Lu-lilotomab satetraxetan 0 ug/ml
Structures can show the parent of a compound that is named as a salt.
Assignment: determine reported growth inhibition by drug alone for the given compounds.
Could you respond with only the numeric value?

Asked: Give recorded growth inhibition by drug alone. Nc1ccc(C(=O)Nc2cccc(-c3nc(N4CCOCC4)c4oc5ncccc5c4n3)c2)cn1
Given back: 0.195

Asked: Give recorded growth inhibition by drug alone. CCN(CC)CCOc1ccc(Nc2ncc3cc(-c4c(Cl)cccc4Cl)c(=O)n(C)c3n2)cc1
Given back: 0.719

Asked: Give recorded growth inhibition by drug alone. CCN(CC)C(=S)SSC(=S)N(CC)CC
Given back: 0.981

Asked: Give recorded growth inhibition by drug alone. CCC(C)(C)C(=O)O[C@H]1C[C@@H](C)C=C2C=C[C@H](C)[C@H](CC[C@@H]3C[C@@H](O)CC(=O)O3)[C@H]21 [Simvastatin (Zocor)]
Given back: -0.019

Asked: Give recorded growth inhibition by drug alone. NC(=O)c1ccc(-c2nc(-c3ccccn3)c(-c3ccc4c(c3)OCO4)[nH]2)cc1
Given back: 0.0294

Asked: Give recorded growth inhibition by drug alone. CN(C)C/C=C/C(=O)Nc1cc2c(Nc3ccc(F)c(Cl)c3)ncnc2cc1O[C@H]1CCOC1
Given back: 0.0101

Asked: Give recorded growth inhibition by drug alone. Nc1cc(C(F)(F)F)c(-c2cc(N3CCOCC3)nc(N3CCOCC3)n2)cn1
Given back: 0.632

Asked: Give recorded growth inhibition by drug alone. CC(C)C[C@H](NC(=O)CNC(=O)c1cc(Cl)ccc1Cl)B1OC(=O)C(CC(=O)O)(CC(=O)O)O1
Given back: 0.985

Asked: Give recorded growth inhibition by drug alone. C[C@@H](N)[C@H]1CC[C@H](C(=O)Nc2ccncc2)CC1
Given back: -0.0269

Asked: Give recorded growth inhibition by drug alone. Cc1cnc(Nc2ccc(OCCN3CCCC3)cc2)nc1Nc1cccc(S(=O)(=O)NC(C)(C)C)c1
Given back: 0.149

Asked: Give recorded growth inhibition by drug alone. COc1cc2c(N3CCN(C(=O)Nc4ccc(OC(C)C)cc4)CC3)ncnc2cc1OCCCN1CCCCC1
Given back: -0.0914

Asked: Give recorded growth inhibition by drug alone. Cn1nnc2c(C(N)=O)ncn2c1=O [Temozolomide]
Given back: -0.0354

Asked: Give recorded growth inhibition by drug alone. COc1cc2ncnc(Nc3ccc(F)c(Cl)c3)c2cc1OCCCN1CCOCC1
Given back: -0.147

Asked: Give recorded growth inhibition by drug alone. O=c1[nH]nc(Sc2ncc([N+](=O)[O-])s2)n1-c1ccc2c(c1)OCCO2
Given back: -0.00347

Asked: Give recorded growth inhibition by drug alone. c1ccc2c(-c3cnn4cc(-c5ccc(N6CCNCC6)cc5)cnc34)ccnc2c1
Given back: -0.0225

Asked: Give recorded growth inhibition by drug alone. c1ccc2c(CCNc3ccc(Nc4ccncc4)cc3)c[nH]c2c1
Given back: 0.0747

Asked: Give recorded growth inhibition by drug alone. COC(=O)C1=C(C)NC(C)=C(C(=O)OCCCN2CCC(c3ccccc3)(c3ccccc3)CC2)[C@H]1c1cccc([N+](=O)[O-])c1 [S-(+)-Niguldipine hydrochloride]
Given back: 0.105

###

Assignment: determine reported growth inhibition by drug plus 177Lu-lilotomab satetraxetan for the given molecules.
- Test system: RIVA
- test_description: growth inhibition by drug plus 177Lu-lilotomab satetraxetan (1 - RLU/untreated control) (fraction); higher = stronger inhibition
- condition_context: 100 nM; time (day): 3; 177Lu-lilotomab satetraxetan 0.5 ug/ml
Could you respond with only the numeric value?

Asked: Report growth inhibition by drug plus 177Lu-lilotomab satetraxetan under test system RIVA for Nc1nc(N)c(N=O)c(OCC2CCCCC2)n1 .
Given back: 0.322

Asked: Report growth inhibition by drug plus 177Lu-lilotomab satetraxetan under test system RIVA for COc1ccc(CCN2CCN(CCCc3ccccc3)CC2)cc1OC .
Given back: 0.0167

Asked: Report growth inhibition by drug plus 177Lu-lilotomab satetraxetan under test system RIVA for Cc1ccc(S(=O)(=O)C=CC#N)cc1 .
Given back: 0.401

Asked: Report growth inhibition by drug plus 177Lu-lilotomab satetraxetan under test system RIVA for CCCS(=O)(=O)Nc1ccc(F)c(C(=O)c2c[nH]c3ncc(-c4ccc(Cl)cc4)cc23)c1F .
Given back: 0.432

Asked: Report growth inhibition by drug plus 177Lu-lilotomab satetraxetan under test system RIVA for OC[C@H]1O[C@@H](n2cnc3c2N=CNC[C@H]3O)C[C@@H]1O .
Given back: 0.399

Asked: Report growth inhibition by drug plus 177Lu-lilotomab satetraxetan under test system RIVA for Cc1ccc(C(=O)Nc2ccc(CN3CCN(C)CC3)c(C(F)(F)F)c2)cc1C#Cc1cnc2cccnn12 .
Given back: 0.689

Asked: Report growth inhibition by drug plus 177Lu-lilotomab satetraxetan under test system RIVA for O=C(NC1CCNCC1)c1n[nH]cc1NC(=O)c1c(Cl)cccc1Cl .
Given back: 0.503

Asked: Report growth inhibition by drug plus 177Lu-lilotomab satetraxetan under test system RIVA for C[C@]12CCC(=O)C=C1CC[C@@H]1[C@@H]2[C@@H](O)C[C@@]2(C)[C@H]1CC[C@]2(O)C(=O)CO [Hydrocortisone (Cortisol)] .
Given back: 0.101

Asked: Report growth inhibition by drug plus 177Lu-lilotomab satetraxetan under test system RIVA for O=c1[nH]nc(Sc2ncc([N+](=O)[O-])s2)n1-c1ccc2c(c1)OCCO2 .
Given back: 0.424
